Biological target: Peroxisome proliferator-activated receptor alpha (Homo sapiens, UniProt Q07869)
Sequence (Q07869 whole entry, the tested form may be a part): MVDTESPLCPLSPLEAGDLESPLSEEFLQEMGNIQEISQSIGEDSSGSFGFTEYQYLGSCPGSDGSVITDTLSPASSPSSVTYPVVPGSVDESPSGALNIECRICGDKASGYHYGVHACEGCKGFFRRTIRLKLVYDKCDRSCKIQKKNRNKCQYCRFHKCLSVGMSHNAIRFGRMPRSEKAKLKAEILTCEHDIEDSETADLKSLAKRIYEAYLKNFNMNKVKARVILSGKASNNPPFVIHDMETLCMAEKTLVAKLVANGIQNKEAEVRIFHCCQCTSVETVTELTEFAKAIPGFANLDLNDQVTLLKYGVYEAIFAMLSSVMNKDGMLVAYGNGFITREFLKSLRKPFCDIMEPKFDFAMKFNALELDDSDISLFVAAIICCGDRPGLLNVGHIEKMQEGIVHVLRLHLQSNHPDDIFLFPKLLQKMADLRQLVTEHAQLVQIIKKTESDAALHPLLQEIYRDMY
Assay: Agonist activity at human GAL4 fused PPARalpha-LBD expressed in human HepG2 cells after 18 hrs by luciferase reporter gene assay
pEC50: −log10 of the molar value.
Entries and their measured pEC50 follow.

{"columns": ["COMPOUND", "pEC50"],
 "data": [
  ["O=C(O)CC1COc2cc(OCCCOc3cccc(Cl)c3)ccc21 (stereo unspecified)", "< 5.00"],
  ["CC(C)(C)c1cccc(OCCCOc2ccc3c(c2)OCC3CC(=O)O)c1 (stereo unspecified)", "< 5.00"],
  ["O=C(O)C[C@@H]1COc2cc(OCCCOc3cccc(Cl)c3)ccc21", "< 5.00"],
  ["O=C(O)CC1COc2cc(OCCOc3ccccc3)ccc21 (stereo unspecified)", "< 5.00"],
  ["Cc1ccc(OCCCOc2ccc3c(c2)OCC3CC(=O)O)cc1 (stereo unspecified)", "< 5.00"],
  ["O=C(O)CC1COc2cc(OCCCOc3ccc(-c4ccccc4)cc3)ccc21 (stereo unspecified)", 5.14],
  ["O=C(O)CC1COc2cc(OCCCOc3cccc(Br)c3)ccc21 (stereo unspecified)", "< 5.00"],
  ["Cc1cc(OCCCOc2ccc(-c3ccccc3)cc2)ccc1OCC(=O)O", 5.28],
  ["[2H]C([2H])(Cc1ccc(OCCCOc2cccc(Cl)c2)cc1)C(=O)O", "< 5.00"],
  ["O=C(O)CC1COc2cc(OCCCOc3ccccc3F)ccc21 (stereo unspecified)", "< 5.00"],
  ["Cc1cccc(OCCCOc2ccc3c(c2)OCC3CC(=O)O)c1 (stereo unspecified)", "< 5.00"]
]}

----------
Molecular target: Peroxisome proliferator-activated receptor delta (Homo sapiens, UniProt Q03181)
Sequence (Q03181 whole entry): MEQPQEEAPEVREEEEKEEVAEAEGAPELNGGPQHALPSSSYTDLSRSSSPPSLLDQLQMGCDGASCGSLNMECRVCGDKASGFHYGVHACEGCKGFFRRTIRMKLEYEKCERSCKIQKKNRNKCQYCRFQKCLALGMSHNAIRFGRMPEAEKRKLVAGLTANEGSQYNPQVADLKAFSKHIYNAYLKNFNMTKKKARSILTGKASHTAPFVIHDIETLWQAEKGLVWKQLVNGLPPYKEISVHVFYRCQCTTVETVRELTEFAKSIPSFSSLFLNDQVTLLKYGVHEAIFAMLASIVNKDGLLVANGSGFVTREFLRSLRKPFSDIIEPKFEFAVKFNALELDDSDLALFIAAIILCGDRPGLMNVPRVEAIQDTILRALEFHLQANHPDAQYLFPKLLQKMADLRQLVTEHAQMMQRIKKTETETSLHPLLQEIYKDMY
Test: Agonist activity at human GAL4 fused PPARdelta-LBD expressed in HEK293 cells after 18 hrs by luciferase reporter gene assay
pEC50: −log10 of the molar value.

{"columns": ["COMPOUND", "LIMIT OPERATOR", "pEC50"],
 "data": [
  ["Cc1cc(OCCCOc2cccc(Cl)c2)ccc1OCC(=O)O", "=", 5.76],
  ["Cc1cc(OCCCOc2ccc(-c3ccccc3)cc2)ccc1OCC(=O)O", "=", 5.82],
  ["O=C(O)CC1COc2cc(OCCCOc3cccc(-c4ccccc4)c3)ccc21 (centres undefined)", "=", 5.26],
  ["Cc1ccccc1OCCCOc1ccc2c(c1)OCC2CC(=O)O (centres undefined)", "=", 5.71],
  ["O=C(O)C[C@@H]1COc2cc(OCCCOc3cccc(Cl)c3)ccc21", "=", 5.76],
  ["CC(C)(C)c1cccc(OCCOc2ccc3c(c2)OCC3CC(=O)O)c1 (centres undefined)", "=", 5.02],
  ["O=C(O)CC1COc2cc(OCCCOc3ccccc3)ccc21 (centres undefined)", "=", 5.49],
  ["Cc1cccc(OCCCOc2ccc3c(c2)OCC3CC(=O)O)c1 (centres undefined)", "=", 5.62],
  ["O=C(O)CC1COc2cc(OCCOc3ccccc3)ccc21 (centres undefined)", "=", 5.10],
  ["O=C(O)CS(=O)(=O)c1ccc(OCCCOc2cccc(Cl)c2)cc1", "<", 5.00],
  ["O=C(O)CC1COc2cc(OCCCOc3cccc(Br)c3)ccc21 (centres undefined)", "=", 5.63],
  ["O=C(O)CC1COc2cc(OCCCOc3cccc(Cl)c3)ccc21 (centres undefined)", "=", 5.67],
  ["[2H]C([2H])(Cc1ccc(OCCCOc2cccc(Cl)c2)cc1)C(=O)O", "=", 5.34],
  ["O=C(O)C[C@@H]1CCc2cc(OCCCOc3ccccc3)ccc21", "=", 6.77],
  ["O=C(O)CC1COc2cc(OCCCOc3ccccc3F)ccc21 (centres undefined)", "=", 5.68],
  ["Cc1ccc(OCCCOc2ccc3c(c2)OCC3CC(=O)O)cc1 (centres undefined)", "=", 5.71],
  ["O=C(O)COc1ccc(OCCCOc2cccc(Cl)c2)cc1F", "=", 5.47],
  ["CC(C)(C)c1cccc(OCCCOc2ccc3c(c2)OCC3CC(=O)O)c1 (centres undefined)", "=", 5.32],
  ["O=C(O)CC1COc2cc(OCCCOc3ccc(-c4ccccc4)cc3)ccc21 (centres undefined)", "=", 5.70]
]}
